test system: HepG2 viability, CellTiter-Glo ATP luminescence, 72 h; test: viability loss in human hepatoma cells – cell-based, CellTiter-Glo luminescence, cherry-pick, set 2, cytotoxicity control, dose response (AID 743395)
Parameter: AC35

Previously resolved entries follow.
Here N=C1/C(=C/c2cccn2CCOc2ccccc2)C(=O)N=C2SC=C(c3ccccc3)N12 was tested on HepG2 viability, CellTiter-Glo ATP luminescence, 72 h, and its AC35 came to 19.3 µM

Form field, AC35 with HepG2 viability, CellTiter-Glo ATP luminescence, 72 h, item COc1cc(C(=O)N/N=C(\c2ccccc2)c2ccccn2)cc(OC)c1OC : 1.46 µM

// returns AC35 for COC(=O)c1cn(NC(=O)c2cc([N+](=O)[O-])ccc2F)c(=O)c2ccccc12 with HepG2 viability, CellTiter-Glo ATP luminescence, 72 h; value = 0.521 µM

# AC35 measured on HepG2 viability, CellTiter-Glo ATP luminescence, 72 h for item COc1ccc(C2=Nn3c(nnc3-c3ccccc3F)SC2)cc1OC1CCOC1 (stereo not given) = 13.2 µM

Attention now turns to another entry.
Measured AC35 (HepG2 viability, CellTiter-Glo ATP luminescence, 72 h), entry CC(=O)c1ccc(Nc2cc(C)nc3c(C)cc(C)cc23)cc1 : 7.71 µM

The measured values listed here are drawn from PubChem BioAssay AID743395.
